- PROCEDURE DETAILS: Plasma pharmacokinetics in patients
- Format: in vivo, human
- STATED CONDITIONS: human, plasma, oral, 45 mg, cycle 1 day 15; dose-escalation 45 mg BID (n=4); geometric mean (% CV)
METRIC NAME: Cmax (ng/mL)
Answer format: numeric, ng/mL implied, no suffix.

Reported Cmax for "Cn1cnc2c(F)c(Nc3ccc(Br)cc3F)c(C(=O)NOCCO)cc21" : what is it?
273

----------
- PROCEDURE DETAILS: Plasma pharmacokinetics in patients
- Type: in vivo, human
- STATED CONDITIONS: human, plasma, oral, 60 mg, cycle 1 day 1; expansion Biliary 60 mg BID (n=7); median (minimum–maximum); read-out: tmax
METRIC NAME: Tmax
Report as: number unit

Quick one: Tmax of "Cn1cnc2c(F)c(Nc3ccc(Br)cc3F)c(C(=O)NOCCO)cc21" ?
1.5 h
